Biological target: T1, native human ApoC3 (human, UniProt P02656 21-99)
T1 construct: also called nhuApoC3; native huApoC3
T1 sequence (P02656 21-99): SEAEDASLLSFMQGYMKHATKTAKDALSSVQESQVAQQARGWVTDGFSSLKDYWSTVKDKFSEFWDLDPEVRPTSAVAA
Assay: SPR, IgG1 over ApoC3 on CM5 chip, pH 5.5
koff by entry:
// return numeric value only (unit: s⁻¹, not printed)

Sample answers from the record:
5E5VH5_VLWT human IgG1 (antibody, V domains shown) VH: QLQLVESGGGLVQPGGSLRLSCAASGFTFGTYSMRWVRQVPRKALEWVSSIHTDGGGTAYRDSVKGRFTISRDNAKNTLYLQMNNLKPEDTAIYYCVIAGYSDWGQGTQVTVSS VL: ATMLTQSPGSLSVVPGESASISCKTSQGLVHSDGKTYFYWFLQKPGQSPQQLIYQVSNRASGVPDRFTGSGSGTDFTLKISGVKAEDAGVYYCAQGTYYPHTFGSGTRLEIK : 0.000203
5E5VH12_VLWT human IgG1 (antibody, V domains shown) VH: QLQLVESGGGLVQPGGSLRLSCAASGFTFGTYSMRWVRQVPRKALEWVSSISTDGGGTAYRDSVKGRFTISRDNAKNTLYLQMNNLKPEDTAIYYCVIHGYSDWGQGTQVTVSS VL: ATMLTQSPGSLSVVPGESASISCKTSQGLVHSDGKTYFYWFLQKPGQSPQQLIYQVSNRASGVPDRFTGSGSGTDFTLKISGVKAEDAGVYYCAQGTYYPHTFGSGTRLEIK : 0.000374
5E5WT human IgG1 (antibody, V domains shown) VH: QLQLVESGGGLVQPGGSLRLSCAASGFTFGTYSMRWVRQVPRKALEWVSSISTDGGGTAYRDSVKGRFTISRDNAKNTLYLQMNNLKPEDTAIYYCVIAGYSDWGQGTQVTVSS VL: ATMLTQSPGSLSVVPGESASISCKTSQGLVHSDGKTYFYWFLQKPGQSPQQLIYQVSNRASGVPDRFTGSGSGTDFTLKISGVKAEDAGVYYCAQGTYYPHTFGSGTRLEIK : 1.7e-05
5E5VHWT_VL8 human IgG1 (antibody, V domains shown) VH: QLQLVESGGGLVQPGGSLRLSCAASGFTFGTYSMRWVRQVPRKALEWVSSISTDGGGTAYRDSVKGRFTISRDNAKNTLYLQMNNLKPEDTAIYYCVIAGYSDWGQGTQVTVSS VL: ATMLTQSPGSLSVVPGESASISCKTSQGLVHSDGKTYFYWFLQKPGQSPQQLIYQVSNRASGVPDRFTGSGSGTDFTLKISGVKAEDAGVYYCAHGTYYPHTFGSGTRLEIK : 4.06e-05
5E5VH12_VL8 human IgG1 (antibody, V domains shown, Tested as human IgG1) VH: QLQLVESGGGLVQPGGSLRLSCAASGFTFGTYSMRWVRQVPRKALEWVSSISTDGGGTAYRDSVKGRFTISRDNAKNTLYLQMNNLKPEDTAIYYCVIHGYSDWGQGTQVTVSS VL: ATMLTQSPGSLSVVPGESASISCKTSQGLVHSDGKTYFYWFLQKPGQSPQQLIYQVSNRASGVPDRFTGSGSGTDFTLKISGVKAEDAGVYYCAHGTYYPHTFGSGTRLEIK : 0.00165

Form field koff, entry 5E5VH5_VL8 human IgG1 (antibody, V domains shown, Tested as human IgG1; the tested lot is not tied to them in words) VH: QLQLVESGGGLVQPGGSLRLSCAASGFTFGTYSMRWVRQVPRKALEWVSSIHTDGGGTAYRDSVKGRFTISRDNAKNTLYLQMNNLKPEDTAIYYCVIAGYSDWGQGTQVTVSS VL: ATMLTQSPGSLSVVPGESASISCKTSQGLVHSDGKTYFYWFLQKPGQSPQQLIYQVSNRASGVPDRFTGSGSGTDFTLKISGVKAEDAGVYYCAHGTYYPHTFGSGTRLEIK : 0.00242

Record summary for 5E5VH5VH12_VLWT human IgG1 (antibody, V domains shown) VH: QLQLVESGGGLVQPGGSLRLSCAASGFTFGTYSMRWVRQVPRKALEWVSSIHTDGGGTAYRDSVKGRFTISRDNAKNTLYLQMNNLKPEDTAIYYCVIHGYSDWGQGTQVTVSS VL: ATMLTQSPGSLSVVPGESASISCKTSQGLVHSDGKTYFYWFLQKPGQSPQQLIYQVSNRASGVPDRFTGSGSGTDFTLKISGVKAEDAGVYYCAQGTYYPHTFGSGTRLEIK : reported koff = 0.00316
